Assay: ATG_EGR_CIS: Attagene CIS-FACTORIAL HepG2 Assay for human Early Growth Response 1 (EGR1) (AID 2282938)
Details: HepG2 Attagene CIS-FACTORIAL EGR reporter mRNA; actives raise or lower the signal
Calls of active or inactive are those of the source. How the source made its calls: active means hit-call score of the fitted dose curve at least 0.9, where 1 is the maximum; inactive means score below 0.9.
Write down the outcome that applies. Available outcomes: True = active, False = inactive

# outcome recorded in this test, key = c1ccc(C(O[C@@H]2CCCN(CCc3ccc4c(c3)OCO4)C2)c2ccccc2)cc1
True

# outcome recorded in this test, key = CCCCCCCCCCCCCCCCOS(=O)(=O)O
False

# outcome recorded in this test, key = C[C@@H](Oc1ccc(CNC(=O)c2cccnc2Oc2ccc3c(c2)OCO3)c(F)c1)C(=O)O
False

# outcome recorded in this test, key = NC(=O)NN=Cc1ccc([N+](=O)[O-])o1
False

# outcome recorded in this test, key = S=P(N1CC1)(N1CC1)N1CC1
False

# outcome recorded in this test, key = CCCCCCOC(=O)CC(CC(=O)OCCCCCC)(OC(=O)CCC)C(=O)OCCCCCC
False

# outcome recorded in this test, key = OCCOCCOCCO
False

# outcome recorded in this test, key = FC(F)(F)C(F)(F)C(F)(F)C(F)(F)C(F)(F)C(F)(F)I
False

# outcome recorded in this test, key = O=C(Cl)C(F)(F)C(F)(F)C(F)(F)C(=O)Cl
False

# outcome recorded in this test, key = O=C(O)c1cccc(C[C@@H]2COc3ccc(OCc4nc5cc(F)ccc5s4)cc3[C@@H]2O)c1
False

Taken from PubChem BioAssay (EPA / NIEHS).
